System: rats
Test: L-5-hydroxytryptophan (5-HTP) potentiation assay (antidepressant activity)
Format: in vivo, male Wistar rats
Conditions: Rattus norvegicus, ip; read-out: 5-HTP ED50
One threshold, 10 mg/kg, splits the recorded ED50 values: lower ones are Y, equal or higher ones are N.

INPUT: Does the reported ED50 of the following molecule sit strictly below 10 mg/kg? CN(C)CCC=C1c2ccccc2CCc2ccccc21 [amitriptyline, reference compound]
OUTPUT: Y

INPUT: Threshold test, ED50 < 10 mg/kg: Fc1c(F)c(F)c(OC2(c3ccccc3)CCNCC2)c(F)c1F.O=C(O)/C=C\C(=O)O
OUTPUT: N

INPUT: I'd appreciate it if you could check whether Cc1ccc(C2(Oc3c(F)c(F)c(F)c(F)c3F)CCNCC2)cc1.O=C(O)/C=C\C(=O)O has ED50 smaller than 10 mg/kg.
OUTPUT: N

***
INPUT: For Fc1c(F)c(F)c(OC2(c3ccc(Cl)cc3)CCNCC2)c(F)c1F.O=C(O)/C=C/C(=O)O , is the recorded ED50 below the cut-off of 10 mg/kg?
OUTPUT: N

INPUT: ED50 strictly < 10 mg/kg for this molecule? CP(C)(=O)CN1CCC(Oc2c(F)c(F)c(F)c(F)c2F)CC1
OUTPUT: Y

INPUT: Does the reported ED50 of the following molecule sit strictly below 10 mg/kg? CN1CCC(Oc2c(F)c(F)c(F)c(F)c2F)CC1
OUTPUT: Y

INPUT: Item Cl.Fc1ccc(C2(Oc3c(F)c(F)c(F)c(F)c3F)CCNCC2)cc1 : ED50 beneath 10 mg/kg, strictly?
OUTPUT: Y
